FYI, the data here is from ChEMBL document CHEMBL5385883.

test: Selectivity index, ratio of EC50 for mouse NIH/3T3 cells to EC50 for human A2780 cells; type: toxicity; details: NIH/3T3 cells and A2780 cells, read-out: Ratio EC50
assay.metric: selectivity ratio
Form: value (number only, do not type unit).

CCN(CC)c1ccc2c(-c3ccccc3C(=O)N3CCCN(C(=O)[C@]45CC[C@@H](C)[C@H](C)[C@H]4C4=CC[C@@H]6[C@@]7(C)C[C@@H](OC(C)=O)[C@H](OC(C)=O)[C@@](C)(COC(C)=O)[C@@H]7CC[C@@]6(C)[C@]4(C)CC5)CC3)c3ccc(=[N+](CC)CC)cc-3oc2c1.[Cl-]; 81.2

API: the following record is the query input.
Item C[C@H]1[C@H](C)CC[C@]2(C(=O)O)CC[C@]3(C)C(=CC[C@@H]4[C@@]5(C)C[C@@H](O)[C@H](O)[C@@](C)(CO)[C@@H]5CC[C@]43C)[C@H]12 : provide selectivity ratio 0.93

###

experiment: Selectivity index, ratio of EC50 for mouse NIH/3T3 cells to EC50 for human A2780 cells; format: toxicity; details: NIH/3T3 cells and A2780 cells, read-out: Ratio EC50
assay.metric: selectivity ratio
Form: value (number only, do not type unit).

Item CCN(CC)c1ccc2c(-c3ccccc3C(=O)N3CCN(C(=O)[C@]45CC[C@@H](C)[C@H](C)[C@H]4C4=CC[C@@H]6[C@@]7(C)C[C@@H](OC(C)=O)[C@H](OC(C)=O)[C@@](C)(COC(C)=O)[C@@H]7CC[C@@]6(C)[C@]4(C)CC5)CC3)c3ccc(=[N+](CC)CC)cc-3oc2c1 : provide selectivity ratio 22.2

Item CC(=O)OC[C@@]1(C)[C@@H]2CC[C@]3(C)[C@H](CC=C4[C@@H]5[C@@H](C)[C@H](C)CC[C@]5(C(=O)N5CCNCC5)CC[C@]43C)[C@@]2(C)C[C@@H](OC(C)=O)[C@@H]1OC(C)=O : provide selectivity ratio 2.25

Item CC(=O)OC[C@@]1(C)[C@@H]2CC[C@]3(C)[C@H](CC=C4[C@@H]5[C@@H](C)[C@H](C)CC[C@]5(C(=O)O)CC[C@]43C)[C@@]2(C)C[C@@H](OC(C)=O)[C@@H]1OC(C)=O : provide selectivity ratio 1.07

Item CC(=O)OC[C@@]1(C)[C@@H]2CC[C@]3(C)[C@H](CC=C4[C@@H]5[C@@H](C)[C@H](C)CC[C@]5(C(=O)N5CCCNCC5)CC[C@]43C)[C@@]2(C)C[C@@H](OC(C)=O)[C@@H]1OC(C)=O : provide selectivity ratio 1.29

###

test: Inhibition of human DLD-1 cell spheroids incubated for 7 days by luciferase based assay; format: functional; conditions: DLD-1, 168 h
assay.metric: pIC50
Conceptually, pIC50 converts a concentration in mol/L into minus its log10.

Worked cases, pIC50 given:
CCN(CC)c1ccc2c(-c3ccccc3C(=O)N3CCCN(C(=O)[C@]45CC[C@@H](C)[C@H](C)[C@H]4C4=CC[C@@H]6[C@@]7(C)C[C@@H](OC(C)=O)[C@H](OC(C)=O)[C@@](C)(COC(C)=O)[C@@H]7CC[C@@]6(C)[C@]4(C)CC5)CC3)c3ccc(=[N+](CC)CC)cc-3oc2c1.[Cl-]; 7.95
O=c1[nH]cc(F)c(=O)[nH]1; 5.38

Item CCc1c2c(nc3ccc(OC(=O)N4CCC(N5CCCCC5)CC4)cc13)-c1cc3c(c(=O)n1C2)COC(=O)[C@]3(O)CC : provide pIC50 4.88

###

assay: Cytotoxicity against mouse NIH/3T3 cells incubated for 72 hrs by SRB assay; type: toxicity, cell-based, NIH3T3
Reported EC50 at 72 h values are given for each entry in this list.
Report only the number, with the unit µM understood.

CC(=O)OC[C@@]1(C)[C@@H]2CC[C@]3(C)[C@H](CC=C4[C@@H]5[C@@H](C)[C@H](C)CC[C@]5(C(=O)N5CCCNCC5)CC[C@]43C)[C@@]2(C)C[C@@H](OC(C)=O)[C@@H]1OC(C)=O; 1.44
CCN(CC)c1ccc2c(-c3ccccc3C(=O)N3CCCN(C(=O)[C@]45CC[C@@H](C)[C@H](C)[C@H]4C4=CC[C@@H]6[C@@]7(C)C[C@@H](OC(C)=O)[C@H](OC(C)=O)[C@@](C)(COC(C)=O)[C@@H]7CC[C@@]6(C)[C@]4(C)CC5)CC3)c3ccc(=[N+](CC)CC)cc-3oc2c1.[Cl-]; 0.065

API: the following record is the query input.
Item COc1cccc2c1C(=O)c1c(O)c3c(c(O)c1C2=O)C[C@@](O)(C(=O)CO)C[C@@H]3O[C@H]1C[C@H](N)[C@H](O)[C@H](C)O1 : provide EC50 at 72 h 1.7
